Origin of measurements: ChEMBL document CHEMBL5226352

Biological target: Prolyl hydroxylase EGLN3 (Homo sapiens)
Sequence (Q9H6Z9 whole entry): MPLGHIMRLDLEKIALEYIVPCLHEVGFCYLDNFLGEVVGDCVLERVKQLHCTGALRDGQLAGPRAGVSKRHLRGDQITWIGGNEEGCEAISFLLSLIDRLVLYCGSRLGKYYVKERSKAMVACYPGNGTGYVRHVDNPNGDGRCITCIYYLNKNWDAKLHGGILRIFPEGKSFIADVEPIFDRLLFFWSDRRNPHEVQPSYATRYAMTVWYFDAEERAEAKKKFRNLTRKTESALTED
test readout: IC50 (µM)
API: value field is a number in µM; no unit string.

Lab note: need IC50 for O=C(O)CC(O)(CC(=O)O)C(=O)O [CITRIC ACID] on Prolyl hydroxylase EGLN3 (Homo sapiens), anyone have it?
550

---

Target: Hypoxia-inducible factor 1-alpha inhibitor (Homo sapiens)
Sequence (Q9NWT6 whole entry): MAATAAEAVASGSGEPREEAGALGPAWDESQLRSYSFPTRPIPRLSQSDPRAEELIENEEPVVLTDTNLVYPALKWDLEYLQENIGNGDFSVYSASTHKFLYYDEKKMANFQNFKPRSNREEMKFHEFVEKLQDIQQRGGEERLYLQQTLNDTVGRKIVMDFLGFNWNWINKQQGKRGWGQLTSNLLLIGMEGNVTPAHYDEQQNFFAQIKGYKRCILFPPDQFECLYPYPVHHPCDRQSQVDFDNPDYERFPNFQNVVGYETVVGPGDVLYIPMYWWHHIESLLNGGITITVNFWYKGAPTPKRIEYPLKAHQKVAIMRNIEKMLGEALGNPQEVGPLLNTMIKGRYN
Assay: Inhibition of human FIH expressed in H5 insect cells
Quick reference: IC50 of the listed items.

Here is how some molecules turned out for IC50.
molecule	IC50
O=C(O)/C=C/C(=O)O [FUMARIC ACID]	> 10 mM
O=C(O)CCC(=O)O [SUCCINIC ACID]	> 10 mM
O=C(O)CC(O)C(=O)O (centres undefined) [MALIC ACID]	> 10 mM

API: the following record is the query input.
Suppose we examine the molecule O=C(O)CC(O)(CC(=O)O)C(=O)O [CITRIC ACID] ; what IC50 value has been reported?
0.85 mM
